System: MCF7
Assay: Cytotoxicity against human MCF7 cells assessed as reduction in cell viability after 48 hrs by sulforhodamine B colorimetric assay
Assay type: functional, cell-based
Conditions: MCF7, 48 h
RECORDED METRIC: IC50 (µM)
# unit: µM | format: bare number

Illustrative cases are given below, each with its answer.
CHEMICAL SMILES: CN1CCN(C(=O)CCC(=O)Nc2cc3cccc4ccc5cccc2c5c43)CC1
SUBJECT OF TEST: MCF7
IC50 / µM: 14.1
//
CHEMICAL SMILES: c1cc2ccc3cccc4c(NCCCCN5CCCCC5)cc(c1)c2c34
SUBJECT OF TEST: MCF7
IC50 / µM: 1.1
//
CHEMICAL SMILES: CN1CCN(CCCCNc2cc3cccc4ccc5cccc2c5c43)CC1
SUBJECT OF TEST: MCF7
IC50 / µM: 2.6

The record that follows has no IC50 shown yet.
Request the reported IC50 associated with c1cc2ccc3cccc4c(NCCCCCN5CCCCC5)cc(c1)c2c34
14.1

* * *

Tested on: HeLa
Experiment: Cytotoxicity against human HeLa cells assessed as reduction in cell viability after 48 hrs by sulforhodamine B colorimetric assay
Assay type: functional, cell-based
RECORDED METRIC: pIC50
FYI, pIC50 means -log10 of a concentration in mol per litre.

Illustrative cases are given below, each with its answer.
CHEMICAL SMILES: CN1CCN(C(=O)CCC(=O)Nc2cc3cccc4ccc5cccc2c5c43)CC1
pIC50: 4.77

CHEMICAL SMILES: c1cc2ccc3cccc4c(NCCCCN5CCCCC5)cc(c1)c2c34
pIC50: 5.59

CHEMICAL SMILES: CN1CCN(CCCCNc2cc3cccc4ccc5cccc2c5c43)CC1
pIC50: 5.39

CHEMICAL SMILES: c1cc2ccc3cccc4c(NCCCCCN5CCCCC5)cc(c1)c2c34
pIC50: 4.74

CHEMICAL SMILES: CC(C)COC(=O)Nc1cc2cccc3ccc4cccc1c4c32
pIC50: 4.79

Notebook: pull reported pIC50 for HeLa, entry CC(C)COCNc1cc2cccc3ccc4cccc1c4c32
5.01

* * *

Experiment: Cytotoxicity against human Caco2 cells assessed as reduction in cell viability after 48 hrs by sulforhodamine B colorimetric assay
Format: functional, cell-based
Details: Caco-2, 48 h
RECORDED METRIC: IC50 (µM)
# unit: µM | format: bare number

CHEMICAL SMILES: CN1CCN(CCCCNc2cc3cccc4ccc5cccc2c5c43)CC1
IC50 (µM): 7.23

The record that follows has no IC50 shown yet.
Request the reported IC50 associated with CC(C)COC(=O)Nc1cc2cccc3ccc4cccc1c4c32
36.3
